System: oligopeptidase B (OPB); Nagaimo protease
Construct: native, purified from tubers; monomer, 75 kDa by gel filtration, 81 kDa by reducing SDS-PAGE; internal tryptic peptide SAGGLLMGAVLNMR
assayDetails: fluorometric AMC release, Lineweaver-Burk
Format: biochemical, Dioscorea polystachya
reportedConditions: Tris-HCl pH 8.0, 37 °C
Peptide text beside a SMILES is read from it. * marks the point of attachment. AMC = Cc1cc(=O)oc2cc(N*)ccc12; Cbz = O=C(OCc1ccccc1)*; Boc = CC(C)(C)OC(=O)*
measuredParameter: Km
State the result as a value with its unit after it.

Which measured Km belongs to Cc1cc(=O)oc2cc(NC(=O)[C@H](CCCNC(=N)N)NC(=O)[C@@H]3CCCN3C(=O)CNC(=O)OCc3ccccc3)ccc12 [Z-Gly-Pro-Arg-MCA] (Cbz-Gly-Pro-Arg-{AMC}) , tested on oligopeptidase B (OPB); Nagaimo protease?
11.8 µM

More entries:
Which measured Km belongs to Cc1cc(=O)oc2cc(NC(=O)[C@H](CCCNC(=N)N)NC(=O)[C@H](Cc3ccccc3)NC(=O)[C@@H]3CCCN3)ccc12 [Pro-Phe-Arg-MCA] (H-Pro-Phe-Arg-{AMC}) , tested on oligopeptidase B (OPB); Nagaimo protease?
10 µM

Which measured Km belongs to Cc1cc(=O)oc2cc(NC(=O)[C@H](CCCCN)NC(=O)[C@H](CCCCN)NC(=O)[C@H](CCC(=O)O)NC(=O)OC(C)(C)C)ccc12 [Boc-Glu-Lys-Lys-MCA] (Boc-Glu-Lys-Lys-{AMC}) , tested on oligopeptidase B (OPB); Nagaimo protease?
5 µM

Which measured Km belongs to Cc1cc(=O)oc2cc(NC(=O)[C@H](CCCNC(=N)N)NC(=O)[C@@H]3CCCN3C(=O)[C@@H](NC(=O)OC(C)(C)C)C(C)C)ccc12 [Boc-Val-Pro-Arg-MCA] (Boc-Val-Pro-Arg-{AMC}) , tested on oligopeptidase B (OPB); Nagaimo protease?
12.5 µM

Which measured Km belongs to Cc1cc(=O)oc2cc(NC(=O)[C@H](CCCNC(=N)N)NC(=O)[C@H](CCCNC(=N)N)NC(=O)[C@H](CCC(N)=O)NC(=O)OC(C)(C)C)ccc12 [Boc-Gln-Arg-Arg-MCA] (Boc-Gln-Arg-Arg-{AMC}) , tested on oligopeptidase B (OPB); Nagaimo protease?
15 µM
